- assay_system: Hepatocyte nuclear factor 6 (Homo sapiens) (UniProt Q9UBC0)
- Sequence (Q9UBC0 whole entry, looked up): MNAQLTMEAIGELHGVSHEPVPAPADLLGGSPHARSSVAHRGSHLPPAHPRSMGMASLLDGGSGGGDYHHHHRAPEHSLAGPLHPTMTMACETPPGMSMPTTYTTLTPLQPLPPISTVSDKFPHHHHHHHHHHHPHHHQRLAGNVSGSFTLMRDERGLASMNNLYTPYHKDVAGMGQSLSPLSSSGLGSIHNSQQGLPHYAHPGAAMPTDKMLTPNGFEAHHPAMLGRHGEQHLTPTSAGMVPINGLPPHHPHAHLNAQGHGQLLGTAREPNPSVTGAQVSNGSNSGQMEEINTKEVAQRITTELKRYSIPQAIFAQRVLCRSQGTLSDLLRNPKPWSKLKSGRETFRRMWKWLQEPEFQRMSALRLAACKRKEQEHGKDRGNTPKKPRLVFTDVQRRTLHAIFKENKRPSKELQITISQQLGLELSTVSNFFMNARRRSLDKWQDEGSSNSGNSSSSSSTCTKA
- measurement_description: ATG_HNF6_CIS: Attagene CIS-FACTORIAL HepG2 Assay for human Hepatocyte Nuclear Factor 6 (HNF6) (AID 2282952)
- conditions: HepG2 Attagene cis-factorial HNF6 reporter transcription; actives raise or lower the signal
Calls of active or inactive are those of the source. How the source made its calls: active means hit-call score of the fitted dose curve at least 0.9, where 1 is the maximum; inactive means score below 0.9.
Hi there, use one of these labels in your reply, thanks! TRUE (active), FALSE (inactive)

*Q* How was COC(=O)c1ccc2cc(C(=O)OC)ccc2c1 classified in this test?
*A* FALSE

*Q* Status in this test for CCCCCCCCCCCCCCCC[N+](C)(C)CC ?
*A* FALSE

*Q* Please share the test call associated with O=C1C=CC(=O)O1 .
*A* FALSE

*Q* Hey, what did the test say about COC(=O)c1cc(Cl)ccc1[N+](=O)[O-] ?
*A* FALSE

*Q* For CC(C)(C)c1n[nH]c(=O)n(N)c1=O , which call appears in the assay record?
*A* FALSE

*Q* For CC(C)CC(O)Cc1ccccc1 (centres undefined) , what call appears in the results of this test?
*A* FALSE

*Q* Which result was noted for this compound in the test: CCCCCCCCCCCSCC(=O)O
*A* TRUE

*Q* Call for entry CCOC(=O)NNc1nncc2ccccc12 :
*A* FALSE

*Q* How did this test come out for O=C(Nc1ccccc1SSc1ccccc1NC(=O)c1ccccc1)c1ccccc1 ?
*A* FALSE

*Q* Could you check what this test reported for Nc1cccc(C(F)(F)F)c1 ?
*A* FALSE

*Q* Look up the recorded call for C=C1[C@H]2CC[C@@H]3[C@H]2C(C)(C)CCC[C@]13C in this test.
*A* FALSE

*Q* Field: outcome | Entry: CO[Si](OC)(OC)c1ccccc1
*A* FALSE

*Q* # lookup: test call for CC(=O)OCCC1CCCCC1
*A* FALSE

*Q* Hi, sorry to bother you, what did the test record for COc1ccc2nc(N)sc2c1 ?
*A* FALSE

---

- assay_system: Heat shock factor protein 1 (Homo sapiens)
- measurement_description: ATG_HSE_CIS: Attagene CIS-FACTORIAL HepG2 Assay for human Heat Shock Transcription Factor 1 (HSE) (AID 2282953)
- conditions: HepG2 HSE cis-reporter, Attagene RNA transcription; actives raise or lower the signal
The source made the active and inactive calls. Rule for the calls: active = hit-call score of the fitted dose curve at least 0.9, where 1 is the maximum; inactive = score below 0.9.
Returns: one label drawn from true (active), false (inactive)

*Q* Fill in: this test's call for Cc1ccc(N)c([N+](=O)[O-])c1 is ___
*A* false

*Q* Dear all, I need the recorded test outcome for O=C(O)CCCC[C@@H]1SC[C@@H]2NC(=O)N[C@@H]21 , thank you.
*A* false

*Q* Kindly provide the recorded test outcome for the following compound: CC/C=C\CCOC(=O)CCCCC
*A* false

*Q* I would be grateful if you could indicate the recorded call for C=C(C)CCO .
*A* false

*Q* So what was the verdict on CC/C=C\C/C=C\C/C=C\CCCCCCCC(=O)O in this test?
*A* true

*Q* Outcome? Oc1ccc(Cl)cc1Cc1cc(Cl)ccc1O
*A* false

*Q* # fetch the recorded call for FC(F)=C(F)OC(F)(F)C(F)(F)C(F)(F)F here
*A* false

*Q* What outcome does the record of this test show for c1ccc2c(c1)ccc1ncccc12 ?
*A* false

*Q* Name the outcome recorded for CCCCCCCCCCOS(=O)(=O)O in the assay.
*A* false

*Q* In this assay, the call recorded for OC1OCCOC1O (configuration not stated) was what?
*A* false

*Q* In this assay, the call recorded for CC(C)=CCC[C@H](C)CCO was what?
*A* false

*Q* Which result was noted for this compound in the test: CCC(CO)CO
*A* false

*Q* Test call, this compound: [Cl][Bi]([Cl])([c]1ccccc1)([c]1ccccc1)[c]1ccccc1
*A* true

*Q* GET /call?item= O=C(O)CCCCCCCCCC(=O)O returns the recorded outcome of this test.
*A* false

*Q* Please let me know the test result on file for CCN(CC#N)c1cccc(C)c1 .
*A* false

*Q* # lookup: test call for Nc1ccc(N=Nc2ccccc2)c(N)n1
*A* false

*Q* Name the outcome recorded for C=C(C)[C@@H]1CCC2=CCC[C@@H](C)[C@]2(C)C1 in the assay.
*A* false

*Q* I'd appreciate the recorded outcome for c1cc(C(c2ccc(OCC3CO3)cc2)C(c2ccc(OCC3CO3)cc2)c2ccc(OCC3CO3)cc2)ccc1OCC1CO1 (configuration not stated) from this test.
*A* true

*Q* What is the recorded call for this compound in the test? CCCCNc1ccc(NCCCC)c2c1C(=O)c1ccccc1C2=O
*A* false

*Q* Assay result, entry O=C(Nc1cccc(C(F)(F)F)c1)c1cc(Br)cc(Br)c1O — outcome?
*A* true

*Q* I'd appreciate the recorded outcome for C=CC(C)(C)C from this test.
*A* false

*Q* What outcome does the record of this test show for Nc1ncn([C@@H]2O[C@H](CO)[C@@H](O)[C@H]2O)c(=O)n1 ?
*A* false

*Q* Name the outcome recorded for COCc1c(C(C)C)nc(C(C)C)c(/C=C/[C@@H](O)C[C@@H](O)CC(=O)O)c1-c1ccc(F)cc1 in the assay.
*A* false

*Q* For CC(=O)c1ccc2c(c1)CCCC2 , which call appears in the assay record?
*A* false

*Q* Outcome logged for [Cl][Nd]([Cl])[Cl] in this assay:
*A* false

*Q* # lookup: test call for CCCNC(=O)NS(=O)(=O)c1ccc(Cl)cc1
*A* false

*Q* Which result was noted for this compound in the test: CCCCCCCCO[C@@H]1O[C@H](CO)[C@@H](O)[C@H](O)[C@H]1O
*A* false

---

- Read-out: CD69, CD69 (gene 969)
- measurement_description: BSK_SAg_CD69: BioMAP Diversity Plus: SAg Assay for CD69 Biomarker Activity (AID 2283089)
- conditions: primary human HUVEC with PBMC; actives raise or lower the signal
Calls of active or inactive are those of the source. Rule for the calls: active = hit-call score of the fitted dose curve at least 0.9, where 1 is the maximum; inactive = score below 0.9.
// classify into true (active), false (inactive)

*Q* Hi, sorry to bother you, what did the test record for C=CCOc1c(Br)cc(Br)cc1Br ?
*A* false

*Q* So what was the verdict on CC(C)C(=O)C(C)C in this test?
*A* false

*Q* Each molecule tested received a call. Report the one for COc1ccc2nc(N)sc2c1 .
*A* false

*Q* Could you kindly confirm the outcome this assay logged for O=Nc1ccc(O)cc1 ?
*A* false

*Q* Given CCOc1nc(F)cc2nc(S(=O)(=O)Nc3c(Cl)cccc3C(=O)OC)nn12 , state the outcome it received in this test.
*A* false

*Q* Field: outcome | Entry: CCCCNc1ccc(NCCCC)c2c1C(=O)c1ccccc1C2=O
*A* false

*Q* Test call for this molecule, please: CCCCCCCCCCCCCCCC[N+](C)(C)CC
*A* true

*Q* GET /call?item= C/C=C\C/C=C/CCCCCCCCOC(C)=O returns the recorded outcome of this test.
*A* true

*Q* What call does the record list for O=C(c1ccc(O)cc1)c1ccc(O)cc1O ?
*A* false

*Q* State the result this test recorded for c1ccc2c(c1)ccc1cc3c(ccc4ccccc43)cc12 .
*A* false

*Q* For C#CC1(O)CC[C@H]2[C@@H]3CCC4=CCCC[C@@H]4[C@H]3CC[C@@]21C (stereo partly specified) , what call appears in the results of this test?
*A* true

*Q* Hi, sorry to bother you, what did the test record for O=C(Cl)c1cc(C(=O)Cl)cc(C(=O)Cl)c1 ?
*A* true

*Q* For CC1OC1C1CCC2(C)OC2C1 (stereo unspecified) , what call appears in the results of this test?
*A* false

*Q* Give the logged outcome of this assay for the following molecule: CCO[Si](C)(OCC)OCC
*A* false

*Q* Identify the outcome logged in this assay for the molecule shown: C=C[Si](OC(C)=O)(OC(C)=O)OC(C)=O
*A* false

*Q* Recorded test call requested for C=CCOCC(O)CCl (stereo unspecified)
*A* false

*Q* Test call, this molecule: c1ccc2c(c1)ccc1ncccc12
*A* false

*Q* What did this assay record as the result for CCCCC(CC)COC(=O)c1ccccc1O (stereo unspecified) ?
*A* false

*Q* Tell me the recorded outcome of this test for COCc1c(C(C)C)nc(C(C)C)c(/C=C/[C@@H](O)C[C@@H](O)CC(=O)O)c1-c1ccc(F)cc1 .
*A* true

*Q* Hi, sorry to bother you, what did the test record for C=CC(=O)OCC(Br)CBr (stereo unspecified) ?
*A* true

*Q* Please let me know the test result on file for C=CC=CC=CCCCCC .
*A* false

*Q* Fill in: this test's call for CCO[Si](CCCN=C=O)(OCC)OCC is ___
*A* false

*Q* For this molecule, state the assay outcome: c1ccc(-c2ccccn2)nc1
*A* false

*Q* Short answer needed: outcome of this test for S=C(NC1CCCCC1)NC1CCCCC1 ?
*A* false

*Q* What classification did O=c1c2ccccc2oc2ccccc12 end up with in this test?
*A* false

*Q* What classification did CO[Si](OC)(OC)c1ccccc1 end up with in this test?
*A* false
